- targetOfAssay: CD45 (Homo sapiens, UniProt P08575)
- Sequence (P08575 620-1236): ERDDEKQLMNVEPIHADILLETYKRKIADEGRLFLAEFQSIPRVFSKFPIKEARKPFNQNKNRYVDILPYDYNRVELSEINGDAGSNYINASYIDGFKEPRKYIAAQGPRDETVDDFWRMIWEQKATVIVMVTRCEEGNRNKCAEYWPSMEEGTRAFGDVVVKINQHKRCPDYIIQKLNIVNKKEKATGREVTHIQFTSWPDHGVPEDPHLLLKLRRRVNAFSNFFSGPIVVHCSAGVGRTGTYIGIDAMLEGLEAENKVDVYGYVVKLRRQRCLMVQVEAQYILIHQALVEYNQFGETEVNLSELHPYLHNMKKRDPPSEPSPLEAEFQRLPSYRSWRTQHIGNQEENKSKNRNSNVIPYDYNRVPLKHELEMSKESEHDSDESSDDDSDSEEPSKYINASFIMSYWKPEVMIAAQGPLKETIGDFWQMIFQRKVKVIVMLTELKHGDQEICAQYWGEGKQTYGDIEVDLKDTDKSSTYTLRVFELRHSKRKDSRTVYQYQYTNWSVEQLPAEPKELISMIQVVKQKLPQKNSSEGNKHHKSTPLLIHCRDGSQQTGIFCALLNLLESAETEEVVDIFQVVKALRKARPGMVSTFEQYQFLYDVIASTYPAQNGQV
pIC50: −log10 of the molar value.

compound	pIC50
N#Cc1ccsc1NS(=O)(=O)c1ccc(NC(=O)CCl)cc1 [M029]	3.86

----------
- experimentNotes: Pharmacokinetics in mice
- Type: in vivo, C57BL/6 mice
- Parameters: unit not given here
- testParameters: female, C57BL/6, mouse, plasma, ip, 25 mg/kg intraperitoneal, read-out: area under the curve (AUC), IP

molecule	AUC
N#Cc1ccsc1NS(=O)(=O)c1ccc(NC(=O)CCl)cc1 [M029]	5090

----------
- targetOfAssay: CDC14A (Homo sapiens)
- Sequence (Q9UNH5 1-413): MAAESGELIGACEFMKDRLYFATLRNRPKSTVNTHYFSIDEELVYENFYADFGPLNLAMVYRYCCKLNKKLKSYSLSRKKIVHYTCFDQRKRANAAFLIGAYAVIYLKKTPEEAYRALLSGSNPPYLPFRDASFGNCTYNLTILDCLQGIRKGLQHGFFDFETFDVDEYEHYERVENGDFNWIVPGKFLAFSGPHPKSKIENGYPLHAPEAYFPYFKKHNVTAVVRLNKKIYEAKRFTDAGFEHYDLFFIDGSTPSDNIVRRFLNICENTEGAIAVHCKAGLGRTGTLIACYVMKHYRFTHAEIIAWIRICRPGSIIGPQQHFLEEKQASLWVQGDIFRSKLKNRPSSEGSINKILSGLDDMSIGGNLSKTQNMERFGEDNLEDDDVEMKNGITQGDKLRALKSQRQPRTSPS

molecule	IC50
N#Cc1ccsc1NS(=O)(=O)c1ccc(NC(=O)CCl)cc1 [M029]	> 200 µM

----------
- experimentNotes: Pharmacokinetics in mice
- Format: in vivo, C57BL/6 mice
- testParameters: female, C57BL/6, mouse, plasma, ip, 25 mg/kg intraperitoneal, read-out: peak plasma concentration (Cmax), IP
valueType: Cmax

molecule	valueType	result
N#Cc1ccsc1NS(=O)(=O)c1ccc(NC(=O)CCl)cc1 [M029]	Cmax	122 µM

----------
- targetOfAssay: SHP1 (Homo sapiens, UniProt P29350)
- Construct: SHP1, residues 245-543; made in house; host or cells: E. coli BL21(DE3)
- Sequence (P29350 245-543): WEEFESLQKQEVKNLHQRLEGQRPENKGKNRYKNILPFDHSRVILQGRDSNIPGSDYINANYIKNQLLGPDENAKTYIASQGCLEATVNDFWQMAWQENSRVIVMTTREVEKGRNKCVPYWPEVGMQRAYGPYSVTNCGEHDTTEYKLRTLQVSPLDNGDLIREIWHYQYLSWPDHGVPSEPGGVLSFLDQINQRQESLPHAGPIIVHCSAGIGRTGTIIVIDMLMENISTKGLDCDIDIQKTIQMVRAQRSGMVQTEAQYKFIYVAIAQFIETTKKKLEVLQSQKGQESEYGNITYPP
- experimentNotes: IC50 after 10-min/60-min preincubation, DiFMUP phosphatase assay
- Assay type: biochemical
- testParameters: 10-min preincubation; purchased hits; read-out: SHP1 IC50, 10 min

molecule	IC50, µM
O=C(CCl)Nc1ccc(S(=O)(=O)Nc2nccs2)cc1 [Z57117023]	99.1

----------
- targetOfAssay: SHP1 (Homo sapiens, UniProt P29350)
- Construct: SHP1, residues 245-543; made in house; host or cells: E. coli BL21(DE3)
- experimentNotes: IC50 after 10-min/60-min preincubation, DiFMUP phosphatase assay
- Type: biochemical
- testParameters: 60-min preincubation; read-out: 60 min IC50, SHP1
pIC50: −log10 of the molar value.
valueType: pIC50

molecule	recordedNumber
N#Cc1ccsc1NS(=O)(=O)c1ccc(NC(=O)CCl)cc1 [M029]	5.59

----------
- targetOfAssay: PTPN22 (Homo sapiens)
- Construct: LYP/PTPN22, residues 1-294; made in house; host or cells: E. coli BL21(DE3)
- Sequence (Q9Y2R2 1-294): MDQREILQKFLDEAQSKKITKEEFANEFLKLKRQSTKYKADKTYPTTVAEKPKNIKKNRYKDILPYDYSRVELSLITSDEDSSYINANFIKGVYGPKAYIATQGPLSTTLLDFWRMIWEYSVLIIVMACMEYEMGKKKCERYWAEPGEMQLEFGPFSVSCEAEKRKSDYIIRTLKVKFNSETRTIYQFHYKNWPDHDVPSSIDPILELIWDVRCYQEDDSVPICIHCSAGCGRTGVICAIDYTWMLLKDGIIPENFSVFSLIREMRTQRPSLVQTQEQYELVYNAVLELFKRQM
- experimentNotes: IC50 after preincubation, DiFMUP phosphatase assay
- Format: biochemical
- testParameters: 60-min preincubation; read-out: 60 min IC50, PTPN22
pIC50: −log10 of the molar value.

compound	targetOfAssay	pIC50
N#Cc1ccsc1NS(=O)(=O)c1ccc(NC(=O)CCl)cc1 [M029]	PTPN22 (Homo sapiens)	4.05

----------
- targetOfAssay: PTP1B (Homo sapiens)
- Construct: PTP1B, residues 1-321; made in house; host or cells: E. coli BL21(DE3)
- Sequence (P18031 1-321): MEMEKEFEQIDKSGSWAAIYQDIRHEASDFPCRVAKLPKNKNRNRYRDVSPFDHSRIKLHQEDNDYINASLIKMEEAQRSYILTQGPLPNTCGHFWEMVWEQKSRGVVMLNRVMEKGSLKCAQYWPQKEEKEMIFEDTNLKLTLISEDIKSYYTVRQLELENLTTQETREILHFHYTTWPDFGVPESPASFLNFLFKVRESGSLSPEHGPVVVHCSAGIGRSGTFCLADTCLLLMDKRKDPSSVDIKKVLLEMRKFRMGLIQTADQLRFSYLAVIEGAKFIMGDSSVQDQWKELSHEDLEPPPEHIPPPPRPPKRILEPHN
- experimentNotes: IC50 after preincubation, DiFMUP phosphatase assay
- Assay type: biochemical
- testParameters: 60-min preincubation; read-out: 60 min IC50, PTP1B
valueType: IC50 (µM)

itemSmiles	valueType	recordedNumber
N#Cc1ccsc1NS(=O)(=O)c1ccc(NC(=O)CCl)cc1	IC50	152

----------
- experimentNotes: Pharmacokinetics in mice
- Assay type: in vivo, C57BL/6 mice
- testParameters: female, C57BL/6, mouse, plasma, 25 mg/kg oral, read-out: Cmax, oral
- Method: Given M029's superb potency, selectivity, and target engagement, we considered that these desirable attributes make it a powerful chemical probe for interrogating the roles of SHP1 in biological processes and a promising lead for further development into an SHP1‐targeted therapy. […] To that end, we determined the pharmacokinetic (PK) properties of M029 in mice by administrating the compound via intraperitoneal (IP), intravenous (IV), and oral (PO) routes at a concentration of 25 mg/kg (Figure S4). […]

itemSmiles	Cmax
N#Cc1ccsc1NS(=O)(=O)c1ccc(NC(=O)CCl)cc1	29.8 µM

----------
- targetOfAssay: Ssu72 (Homo sapiens, UniProt Q9NP77)
- Sequence (Q9NP77 1-194): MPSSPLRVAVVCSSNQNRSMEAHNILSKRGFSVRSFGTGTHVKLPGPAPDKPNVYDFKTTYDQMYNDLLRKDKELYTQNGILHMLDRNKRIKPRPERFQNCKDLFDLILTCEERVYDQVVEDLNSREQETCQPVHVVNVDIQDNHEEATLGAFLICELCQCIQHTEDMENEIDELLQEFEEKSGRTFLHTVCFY
pIC50: −log10 of the molar value.

itemSmiles	targetOfAssay	pIC50
N#Cc1ccsc1NS(=O)(=O)c1ccc(NC(=O)CCl)cc1	Ssu72 (Homo sapiens, UniProt Q9NP77)	< 3.70
